# target-or-test-system: ERα (Homo sapiens, UniProt P03372)
# Construct: host or cells: MCF7
# Sequence (P03372 1-595): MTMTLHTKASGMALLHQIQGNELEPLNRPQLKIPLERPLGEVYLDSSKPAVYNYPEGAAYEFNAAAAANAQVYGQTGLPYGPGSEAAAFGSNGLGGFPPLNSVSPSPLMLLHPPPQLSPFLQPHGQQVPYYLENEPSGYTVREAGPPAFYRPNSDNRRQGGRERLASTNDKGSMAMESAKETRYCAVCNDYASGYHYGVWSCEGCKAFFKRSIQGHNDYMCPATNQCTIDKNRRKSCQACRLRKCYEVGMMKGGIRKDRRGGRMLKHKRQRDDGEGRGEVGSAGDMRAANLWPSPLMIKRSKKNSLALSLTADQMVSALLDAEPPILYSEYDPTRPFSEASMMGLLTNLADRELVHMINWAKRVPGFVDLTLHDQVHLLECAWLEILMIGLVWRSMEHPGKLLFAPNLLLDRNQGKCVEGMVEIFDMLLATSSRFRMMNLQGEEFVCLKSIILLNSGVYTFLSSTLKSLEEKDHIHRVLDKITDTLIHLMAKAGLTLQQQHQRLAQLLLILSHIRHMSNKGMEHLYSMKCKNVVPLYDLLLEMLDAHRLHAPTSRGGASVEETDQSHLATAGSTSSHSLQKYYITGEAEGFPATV
# test-summary: Estrogen receptor degradation activity (breast cancer cell ERα in cell western assay)
# Format: cell-based
# cond: MCF7 cells, 0.3 μM, 4 hours, % of ERα levels decrease relative to fulvestrant
quantity: % Degradation At 0.3 μM (%)
I only need the number, in %, no unit after it.

Past entries and their recorded results:
compound	units-label	% Degradation At 0.3 μM
Cl.O=C(O)c1ccc2c(c1)CCCC(c1cccc(Cl)c1)=C2c1ccc(CC2CCN(CCCF)C2)cc1 (single isomer, unassigned; isomer 1) [Compound 40]	%	73
Cc1c(C2=C(c3ccc(CC4CCN(CCC(F)F)C4)cc3)c3ccc(C(=O)O)cc3CCC2)cccc1C(F)(F)F.Cl (single isomer, unassigned; isomer 1) [Compound 28]	%	78

Query :: Give the reported % Degradation At 0.3 μM for this compound. Cc1c(Cl)cccc1C1=C(c2ccc(CC3CCN(CCC(F)F)C3)cc2)c2ccc(C(=O)O)cc2CCC1.Cl (single isomer, unassigned; isomer 1) [Compound 6]
Result :: 81

Query :: Please give the documented % Degradation At 0.3 μM of Cl.O=C(O)c1ccc2c(c1)OCCC(c1ccc(Cl)cc1Cl)=C2c1ccc(CC2CCN(CCCF)C2)cc1 (single isomer, unassigned; isomer 2) [Compound 8]
Result :: 63

====

Some compounds, each annotated with its measured % Degradation At 0.3 μM.
# target-or-test-system: ERα (Homo sapiens, UniProt P03372)
# Construct: host or cells: MCF7
# test-summary: Estrogen receptor degradation activity (breast cancer cell ERα in cell western assay)
# Assay type: cell-based
# cond: MCF7 cells, 0.3 μM, 4 hours, % of ERα levels decrease relative to fulvestrant
# Method: Said test involves measuring the in vitro degradation activity of the compounds of the Table 1a. The measurements of the degradation activities were made using a breast cancer cell ERα in cell western assay as described hereunder. […] The % of ERα levels decrease were determined as follows: % inhibition=100*(1−(sample−fulvestrant: DMSO−fulvestrant)).
Note: unit % is implicit; provide only the numeric part.

Solved entries:
>>> df
                                   compound                 quantity  data_value
0  COc1ccc(C2=C(c3ccc(CC4CCN(CCCF)C4)cc3)c3ccc(C(=O)O)cc3CCC2)cn1 (single isomer, unassigned; isomer 1) [Compound 14]  % Degradation At 0.3 μM          88
1  Cl.Oc1ccc2c(c1)CCCC(c1ccc(Cl)cc1Cl)=C2c1ccc(CC2CCN(CCC(F)F)C2)cc1 (single isomer, unassigned; isomer 1) [Compound 31]  % Degradation At 0.3 μM          73

API: the following record is the query input.
Query :: Please report % Degradation At 0.3 μM for the following compound: Oc1ccc2c(c1)SCCC(c1ccc(Cl)cc1Cl)=C2c1ccc(CC2CCN(CCCF)C2)cc1 (single isomer, unassigned; isomer 1) [Compound 43]
Result :: 80

====

Recorded % Degradation At 0.3 μM for the following compounds
# target-or-test-system: ERα (Homo sapiens, UniProt P03372)
# Construct: host or cells: MCF7
# test-summary: Estrogen receptor degradation activity (breast cancer cell ERα in cell western assay)
# Assay type: cell-based
# cond: MCF7 cells, 0.3 μM, 4 hours, % of ERα levels decrease relative to fulvestrant
// return numeric value only (unit: %, not printed)

compound	target-or-test-system	units-label	data-value
O=C(O)c1ccc2c(c1)CCCC(c1ccccc1C(F)(F)F)=C2c1ccc(CC2CCN(CCC(F)F)C2)cc1 (stereo not shown)	ERα (Homo sapiens, UniProt P03372)	%	76
O=C(O)c1ccc2c(c1)CCCC(c1cccc(Cl)c1F)=C2c1ccc(CC2CCN(CCCF)C2)cc1 (single isomer, unassigned; isomer 1)	ERα (Homo sapiens, UniProt P03372)	%	88
O=C(O)C(F)(F)F.O=C(O)c1ccc2c(c1)CCCC(c1ccc(Cl)cc1Cl)=C2c1ccc(CC2(F)CCN(CCCF)C2)cc1 (single isomer, unassigned; isomer 2) [Compound 22]	ERα (Homo sapiens, UniProt P03372)	%	48
Cl.O=C(O)c1ccc2c(c1)OCCC(c1ccc(Cl)cc1Cl)=C2c1ccc(CC2CCN(CCCF)C2)cc1 (single isomer, unassigned; isomer 1) [Compound 7]	ERα (Homo sapiens, UniProt P03372)	%	80
Cl.O=C(O)c1ccc2c(c1)SCC(c1ccc(Cl)cc1Cl)=C2c1ccc(CC2CCN(CCCF)C2)cc1 (single isomer, unassigned; isomer 1)	ERα (Homo sapiens, UniProt P03372)	%	68

Query :: Name the recorded % Degradation At 0.3 μM of the item CC1CCc2cc(C(=O)O)ccc2C(c2ccc(CC3CCN(CCCF)C3)cc2)=C1c1ccc(C(F)(F)F)cc1 (single isomer, unassigned; isomer 1) [Compound 41] in your answer.
Result :: 100

====

# System: CYP3A4
# test-summary: CYP3A4 induction potential for ADME profile evaluation (CYP3A4 mRNA by RT-PCR in primary human hepatocytes)
# Assay type: in vitro ADME
# cond: approximately 48 hours, 0.3-10 μM, relative to 10 μM rifampicin
quantity: CYP3A4 induction Emax (%)
Give just the numeric value; % need not be written.

Example entries begin here.
In [3]: df
Out[3]:
                                   compound  data_value
0  Cc1c(C2=C(c3ccc(CC4CCN(CCCF)C4)cc3)c3ccc(C(=O)O)cc3CCC2)cccc1C(F)(F)F.Cl (single isomer, unassigned; isomer 1)          34
1  CC1(C)CCC(C2=C(c3ccc(CC4CCN(CCCF)C4)cc3)c3ccc(C(=O)O)cc3CCC2)CC1.Cl (single isomer, unassigned; isomer 1)           8

Query :: Using known records, supply CYP3A4 induction Emax (%) for Cl.O=C(O)c1ccc2c(c1)CCCC(c1cccc(Cl)c1C(F)(F)F)=C2c1ccc(CC2CCN(CCCF)C2)cc1 (single isomer, unassigned; isomer 1)
Result :: 26

====

% Degradation At 0.3 μM values, listed per item
# target-or-test-system: ERα (Homo sapiens, UniProt P03372)
# Construct: host or cells: MCF7
# test-summary: Estrogen receptor degradation activity (breast cancer cell ERα in cell western assay)
# Type: cell-based
# cond: MCF7 cells, 0.3 μM, 4 hours, % of ERα levels decrease relative to fulvestrant
Numbers only; they are read as %.

Before answering, review these 3 worked examples.
compound	quantity	data-value
O=C(O)c1ccc2c(c1)CCCC(c1ccc(Cl)cc1Cl)=C2c1ccc(N[C@H]2CCN(CCCF)C2)cc1 [Compound C2, reference compound]	% Degradation At 0.3 μM	89
O=C(O)c1ccc2c(c1)CCCC(c1ccc(Cl)cc1Cl)=C2c1ccc(C(F)(F)C2CCN(CCCF)C2)cc1 (single isomer, unassigned; isomer 1) [Compound 26]	% Degradation At 0.3 μM	84
Cc1cc(F)cc(C)c1C1=C(c2ccc(CC3CCN(CCCF)C3)cc2)c2ccc(C(=O)O)cc2CCC1.Cl (single isomer, unassigned; isomer 1) [Compound 35]	% Degradation At 0.3 μM	84

Query :: Please report the measured % Degradation At 0.3 μM for O=C(O)c1ccc2c(c1)CCCC(c1ccc(F)cc1C(F)(F)F)=C2c1ccc(CC2CCN(CCCF)C2)cc1 (single isomer, unassigned; isomer 1) [Compound 18]
Result :: 86

Query :: Could you please provide reported % Degradation At 0.3 μM for Cl.O=C(O)c1ccc2c(c1)CCCC(c1ccc(F)cc1C(F)(F)F)=C2c1ccc(CC2CCN(CCC(F)F)C2)cc1 (single isomer, unassigned; isomer 1) [Compound 5] ? Thanks!
Result :: 80

====

# Tested on: CYP3A4
# test-summary: CYP3A4 induction potential for ADME profile evaluation (CYP3A4 mRNA by RT-PCR in primary human hepatocytes)
# Assay type: in vitro ADME
# cond: approximately 48 hours, 0.3-10 μM, relative to 10 μM rifampicin
Classification by CYP3A4 induction Emax (%) follows these ranges: bottom end (below 10%), midrange (10% to below 30%), top end (30% or more)

Take a look at these entries with their results.
molecule	target-or-test-system	label-class
Cl.O=C(O)c1ccc2c(c1)CCCC(c1ccc(F)cc1Cl)=C2c1ccc(CC2CCN(CCCF)C2)cc1 (single isomer, unassigned; isomer 1) [Compound 2]	CYP3A4	midrange
Cc1cccc(C2=C(c3ccc(CC4CCN(CCCF)C4)cc3)c3ccc(C(=O)O)cc3CCC2)c1C(F)(F)F (single isomer, unassigned; isomer 1) [Compound 30]	CYP3A4	midrange
Cl.O=C(O)c1ccc2c(c1)CCCC(c1cccc(F)c1Cl)=C2c1ccc(CC2CCN(CCCF)C2)cc1 (single isomer, unassigned; isomer 1) [Compound 21]	CYP3A4	top end
O=C(O)c1ccc2c(c1)CCCC(c1ccc(Cl)cc1Cl)=C2c1ccc(O[C@H]2CCN(CCCF)C2)cc1 [(C1), reference compound]	CYP3A4	top end
CC1(C)CC=C(C2=C(c3ccc(CC4CCN(CCCF)C4)cc3)c3ccc(C(=O)O)cc3CCC2)CC1.Cl (single isomer, unassigned; isomer 1) [Compound 11]	CYP3A4	midrange
O=C(O)c1ccc2c(c1)CCCC(c1ccc(Cl)cc1Cl)=C2c1ccc(C[C@H]2CCN(CCCF)C2)cc1 [Compound 1]	CYP3A4	bottom end

Query :: Which CYP3A4 induction Emax (%) category applies to O=C(O)c1ccc2c(c1)CCCC(c1cccc(Cl)c1F)=C2c1ccc(CC2CCN(CCCF)C2)cc1 (single isomer, unassigned; isomer 1) [Compound 16] here?
Result :: midrange

Query :: Where would Cl.O=C(O)c1ccc2c(c1)CCCC(c1ccc(F)cc1C(F)(F)F)=C2c1ccc(CC2CCN(CCC(F)F)C2)cc1 (single isomer, unassigned; isomer 1) [Compound 5] land among the classes by reported CYP3A4 induction Emax (%)?
Result :: midrange

Query :: Form: Item = Cc1c(Cl)cccc1C1=C(c2ccc(CC3CCN(CCC(F)F)C3)cc2)c2ccc(C(=O)O)cc2CCC1.Cl (single isomer, unassigned; isomer 1) [Compound 6] ; Class = ?
Result :: bottom end

Query :: State the band of O=C(O)c1ccc2c(c1)CCCC(c1ccc(Cl)cc1Cl)=C2c1ccc(N[C@H]2CCN(CCCF)C2)cc1 [Compound C2, reference compound]
Result :: top end
